Data provenance is patent US4371537A.

Each entry below lists one item and its recorded MCC value.
# Experimental protocol: Cytotoxicity in tissue culture testing (HeLa monolayers)
# Assay type: cell-based
# Condition notes: human; HeLa cells; observed at 48 and 72 hours post-treatment; read-out: Cytotoxicity: concentration of the compound found to be toxic to the cell
# Experimental: Monolayered HeLa cells in 16 millimeter (mm) tissue culture dishes were treated with 1 ml of culture medium (Eagles medium supplemented with fetal calf serum) containing subject compound at an appropriate concentration or containing no compound at all. Culture media such as those described herein are more fully described in standard texts, as for example, Kuchler's Biochemical Methods in Cell Culture and Virology, Dowden, Hutchinson and Ross, Inc., Stroudsberg, PA (1977). […]
Readout label: MCC (µg/mL)

| Compound | Op | Quantitative result |
| --- | --- | --- |
| CCS(=O)(=O)c1ccc(Oc2ccc3c(c2)OCO3)nc1 | ≥ | 50 |
| CS(=O)(=O)c1cccnc1Oc1ccc(C(=O)c2ccccc2)cc1 | = | 25 |
| CCS(=O)(=O)c1ccc(Oc2ccc(C(=O)c3ccccc3)cc2)nc1 | = | 25 |
| C[S+]([O-])c1ccc(Oc2ccc(Cl)c(Cl)c2)nc1 (stereo not shown) | = | 25 |
| CCCCCCS(=O)(=O)c1ccc(Oc2ccc(Br)cc2)nc1 | > | 50 |
| CS(=O)(=O)c1ccc(Oc2ccc(SC(F)(F)F)cc2)nc1 | ≥ | 100 |
| CS(=O)(=O)c1ccc(Oc2cccc(C#N)c2)nc1 | > | 100 |
| CS(=O)(=O)c1ccc(Oc2ccc(C(=O)c3ccccc3)cc2)nc1 | > | 100 |
| CC(C)S(=O)(=O)c1ccc(Oc2ccc(Br)cc2)nc1 | = | 12.5 |
| CS(=O)(=O)c1ccc(Oc2ccc(Cl)c(Cl)c2)nc1 | = | 50 |

###

# Experimental protocol: Cytotoxicity in tissue culture testing (HeLa monolayers)
# Assay type: cell-based
# Condition notes: human; HeLa cells; observed at 48 and 72 hours post-treatment; read-out: Cytotoxicity: concentration of the compound found to be toxic to the cell
Readout label: log10 MCC (log10 of the value in µg/mL)

| Compound | log10 MCC |
| --- | --- |
| CCCCCCS(=O)(=O)c1ccc(Oc2ccc(C(=O)c3ccccc3)cc2)nc1 | 1.10 |
| CC[S+]([O-])c1ccc(Oc2ccc(Cl)c(Cl)c2)nc1 (centres unmarked) | 1.10 |
| CS(=O)(=O)c1ccc(Oc2ccc(Cl)cc2)nc1 | 1.70 |
| CCS(=O)(=O)c1ccc(Oc2ccc(Oc3ccccc3)cc2)nc1 | 0.80 |
| CCS(=O)(=O)c1cccnc1Oc1ccc(Cl)c(Cl)c1 | 1.40 |
| CS(=O)(=O)c1cccc(Oc2ccc(Cc3ccccc3)cc2)n1 | 0.70 |
| O=C(c1ccccc1)c1ccc(Oc2ccc(S(=O)(=O)C3CCCCC3)cn2)cc1 | 1.10 |
| CCSc1ccc(Oc2ccc(Cl)c(Cl)c2)nc1 | 1.10 |
| CS(=O)(=O)c1cccnc1Oc1ccc(Cl)c(Cl)c1 | 1.70 |
| CC(C)S(=O)(=O)c1ccc(Oc2ccc(C(=O)c3ccccc3)cc2)nc1 | 0.60 |
| O=S(=O)(c1ccccc1)c1ccc(Oc2ccc(Br)cc2)nc1 | 1.30 |
| O=S(=O)(c1ccc(Oc2ccc(Br)cc2)nc1)C1CCCCC1 | 1.70 |
| CS(=O)(=O)c1ccnc(Oc2ccc(Cl)c(Cl)c2)c1 | 1.70 |
| CS(=O)(=O)c1cccc(Oc2ccc(Br)cc2)n1 | 1.40 |
